Test system: NCI/ADR-RES ovarian
Experiment: NCI-60 one-dose screen, 48 h (100 = growth as untreated, 0 = no growth, -100 = all killed)
Settings: 10 µM unless noted
This is part of a sample that, as a whole, favours compounds with a hit. Of some 83,000 tested, about 20% had one in any assay.
Entries and their growth values follow.
measured attribute: growth (%)

[
  {
    "compound": "COC1OC(C(COC(C)=O)OC(C)=O)C(OC(C)=O)C(OC(C)=O)C1OC(C)=O (stereo not given)",
    "endpoint result": 105
  },
  {
    "compound": "O=C(O)c1ccccc1Cc1ccc2c(c1)CCCC2",
    "endpoint result": 115
  },
  {
    "compound": "CCCCCCCCCc1ccc(OC(C)=O)cc1",
    "endpoint result": 119
  },
  {
    "compound": "Cc1onc(-c2c(F)cccc2Cl)c1-c1ncc(-c2ccc(Br)cc2)o1",
    "endpoint result": 31.1
  },
  {
    "compound": "Cn1c(=O)c2[nH]c(CC(=O)O)nc2n(C)c1=O",
    "endpoint result": 102
  },
  {
    "compound": "COC(=O)Cc1cc(COC(C)=O)ccc1C",
    "endpoint result": 107
  },
  {
    "compound": "NC(CO)(CO)c1ccccc1",
    "endpoint result": 111
  },
  {
    "compound": "COc1ccc(Br)c2c1C(=O)CC2",
    "endpoint result": 110
  },
  {
    "compound": "Cc1cc(C(=O)c2ccccc2)cc(C)c1O",
    "endpoint result": 104
  },
  {
    "compound": "O=Cc1c(O)c2ccccc2[nH]c1=O",
    "endpoint result": 104
  },
  {
    "compound": "CCCCCCCCCCCCCC/C=C\\C(CC(=O)O)C(=O)O (stereo not given)",
    "endpoint result": 107
  },
  {
    "compound": "O=C(N/N=C\\c1ccc(Cl)cc1Cl)c1ccncc1",
    "endpoint result": 102
  },
  {
    "compound": "Clc1cccc(Cl)c1CSc1nc2ccccc2n2cccc12",
    "endpoint result": 101
  },
  {
    "compound": "CCOC(=O)/C(C)=C\\c1ccc(OC)c(OC)c1",
    "endpoint result": 100
  },
  {
    "compound": "Cc1ccc2nc(-c3ccc(N=Cc4ccccc4O)cc3)sc2c1",
    "endpoint result": 77.7
  },
  {
    "compound": "O=C(c1cccc(C(=O)c2ccc3c4c(cccc24)C(=O)N(c2ccccc2)C3=O)c1)c1ccc2c3c(cccc13)C(=O)N(c1ccccc1)C2=O",
    "endpoint result": 96.9
  },
  {
    "compound": "CC(c1ccccc1)N(C)C (stereo not given)",
    "endpoint result": 105
  },
  {
    "compound": "CCOP(=O)(NC(c1ccccc1)c1ccccc1)OCC",
    "endpoint result": 104
  },
  {
    "compound": "O=C(O)c1c[nH]c2ccccc2c1=O",
    "endpoint result": 104
  },
  {
    "compound": "Ic1cccs1",
    "endpoint result": 98.8
  }
]

# credit: PubChem BioAssay (NCI)
